Taken from ChEMBL document CHEMBL2086240.

# Tested on: HT-29
# procedureSummary: Cytostatic activity against human HT-29 cells compound incubated for 6 hrs followed by compound wash out measured after 72 hrs by MTT assay
# Type: functional, cell-based
Property: IC50; scope: individual compounds
measuredAttribute: IC50 (µM)

compoundSmiles	measuredAttribute	recordedNumber
COc1cccc2c1C(=O)c1c(O)c3c(c(O)c1C2=O)C[C@@](O)(/C(C)=N/OCC(=O)NCCCC[C@H](NC(=O)[C@H](Cc1c[nH]c2ccccc12)NC(=O)[C@H](CC(=O)O)NC(=O)[C@H](Cc1cnc[nH]1)NC(=O)[C@H](CCCCNC(=O)CC(C)C)NC(=O)[C@H](Cc1c[nH]c2ccccc12)NC(=O)[C@H](Cc1cnc[nH]1)NC(=O)[C@@H]1CCC(=O)N1)C(=O)N1CCC[C@H]1C(=O)NCC(N)=O)C[C@@H]3O[C@H]1C[C@H](N)[C@H](O)[C@H](C)O1	IC50	16.4
C/C=C/C(=O)NCCCC[C@H](NC(=O)[C@H](Cc1c[nH]c2ccccc12)NC(=O)[C@H](Cc1cnc[nH]1)NC(=O)[C@@H]1CCC(=O)N1)C(=O)N[C@@H](Cc1cnc[nH]1)C(=O)N[C@@H](CC(=O)O)C(=O)N[C@@H](Cc1c[nH]c2ccccc12)C(=O)N[C@@H](CCCCNC(=O)CO/N=C(\C)[C@]1(O)Cc2c(O)c3c(c(O)c2[C@@H](O[C@H]2C[C@H](N)[C@H](O)[C@H](C)O2)C1)C(=O)c1c(OC)cccc1C3=O)C(=O)N1CCC[C@H]1C(=O)NCC(N)=O	IC50	13.6

---

# procedureSummary: Metabolic stability in presence of alpha-chymotrypsin assessed as compound remaining after 6 hrs by LC-MS analysis

compoundSmiles	remaining at 6 h (%)
COc1cccc2c1C(=O)c1c(O)c3c(c(O)c1C2=O)C[C@@](O)(/C(C)=N/OCC(=O)NCCCC[C@H](NC(=O)[C@H](Cc1c[nH]c2ccccc12)NC(=O)[C@H](CC(=O)O)NC(=O)[C@H](Cc1cnc[nH]1)NC(=O)[C@H](CCCCNC(=O)C(C)C)NC(=O)[C@H](Cc1c[nH]c2ccccc12)NC(=O)[C@H](Cc1cnc[nH]1)NC(=O)[C@@H]1CCC(=O)N1)C(=O)N1CCC[C@H]1C(=O)NCC(N)=O)C[C@@H]3O[C@H]1C[C@H](N)[C@H](O)[C@H](C)O1	10

---

# Tested on: MCF7
# procedureSummary: Cellular uptake in human MCF7 cells after 6 hrs by flow cytometer
# Type: ADME, cell-based
# protocolConditions: mcf7, 6 h
measuredAttribute: Drug uptake

compoundSmiles	measuredTarget	result
COc1cccc2c1C(=O)c1c(O)c3c(c(O)c1C2=O)C[C@@](O)(/C(C)=N/OCC(=O)NCCCC[C@@H](NC(=O)[C@H](Cc1ccc(O)cc1)NC(=O)[C@H](CO)NC(=O)[C@H](Cc1c[nH]c2ccccc12)NC(=O)[C@H](Cc1cnc[nH]1)NC(=O)[C@@H]1CCC(=O)N1)C(=O)N[C@@H](CC(C)C)C(=O)N[C@@H](CCCNC(=N)N)C(=O)N1CCC[C@H]1C(=O)NCC(N)=O)C[C@@H]3O[C@H]1C[C@H](N)[C@H](O)[C@H](C)O1	MCF7	Dose-dependent effect
CCCCCCCCCCCCCC(=O)NCCCC[C@H](NC(=O)[C@H](Cc1c[nH]c2ccccc12)NC(=O)[C@H](Cc1cnc[nH]1)NC(=O)[C@@H]1CCC(=O)N1)C(=O)N[C@@H](Cc1cnc[nH]1)C(=O)N[C@@H](CC(=O)O)C(=O)N[C@@H](Cc1c[nH]c2ccccc12)C(=O)N[C@@H](CCCCNC(=O)CO/N=C(\C)[C@]1(O)Cc2c(O)c3c(c(O)c2[C@@H](O[C@H]2C[C@H](N)[C@H](O)[C@H](C)O2)C1)C(=O)c1c(OC)cccc1C3=O)C(=O)N1CCC[C@H]1C(=O)NCC(N)=O	MCF7	Dose-dependent effect
CCCCCC(=O)NCCCC[C@H](NC(=O)[C@H](Cc1c[nH]c2ccccc12)NC(=O)[C@H](Cc1cnc[nH]1)NC(=O)[C@@H]1CCC(=O)N1)C(=O)N[C@@H](Cc1cnc[nH]1)C(=O)N[C@@H](CC(=O)O)C(=O)N[C@@H](Cc1c[nH]c2ccccc12)C(=O)N[C@@H](CCCCNC(=O)CO/N=C(\C)[C@]1(O)Cc2c(O)c3c(c(O)c2[C@@H](O[C@H]2C[C@H](N)[C@H](O)[C@H](C)O2)C1)C(=O)c1c(OC)cccc1C3=O)C(=O)N1CCC[C@H]1C(=O)NCC(N)=O	MCF7	Dose-dependent effect
